This collection of values is drawn from paper PMC9731866.

# Target Of Assay: αβ heterodimer of HsIDH3 (mutant form αMβ) (Homo sapiens, UniProt O43837+P50213, P50213:Q166A)
# Construct: coexpressed alpha and beta-TEV-His6 (pQlinkN), E. coli BL21(DE3) Codon-Plus, His6 tag cleaved with TEV; 1:1 heterodimer, mutant is heterotetramer (αMβ)2 of 131-149 kDa
# Sequence (P50213 28-366 Q166A): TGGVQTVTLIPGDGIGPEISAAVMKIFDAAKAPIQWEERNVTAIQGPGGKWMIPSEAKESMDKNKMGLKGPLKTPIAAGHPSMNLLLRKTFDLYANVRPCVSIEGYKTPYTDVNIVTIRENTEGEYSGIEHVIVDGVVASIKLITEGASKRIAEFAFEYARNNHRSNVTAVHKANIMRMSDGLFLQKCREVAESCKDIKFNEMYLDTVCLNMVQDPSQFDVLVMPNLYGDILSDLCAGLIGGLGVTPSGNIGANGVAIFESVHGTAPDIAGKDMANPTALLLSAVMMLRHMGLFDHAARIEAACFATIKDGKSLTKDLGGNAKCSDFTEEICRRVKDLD
# Sequence (O43837 35-385 limits assumed): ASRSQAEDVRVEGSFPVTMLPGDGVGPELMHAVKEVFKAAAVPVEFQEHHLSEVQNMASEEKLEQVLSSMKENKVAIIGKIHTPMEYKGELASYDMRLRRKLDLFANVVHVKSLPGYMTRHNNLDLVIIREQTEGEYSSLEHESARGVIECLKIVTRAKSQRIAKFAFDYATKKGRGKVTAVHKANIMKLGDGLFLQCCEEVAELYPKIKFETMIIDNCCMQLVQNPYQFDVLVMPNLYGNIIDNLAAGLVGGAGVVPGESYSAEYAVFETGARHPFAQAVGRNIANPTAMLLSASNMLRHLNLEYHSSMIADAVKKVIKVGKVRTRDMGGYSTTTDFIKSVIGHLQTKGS
# Measurement Description: biolayer interferometry, biotinylated protein on streptavidin sensor

{"Chem Smiles": "Nc1ncnc2c1ncn2[C@@H]1O[C@H](COP(=O)(O)OP(=O)(O)O)[C@@H](O)[C@H]1O", "Kd (µM)": 522}
